- ASSAY_SYSTEM: Dual specificity protein kinase CLK2 (Homo sapiens) (UniProt P49760)
- Sequence (P49760 whole entry, looked up): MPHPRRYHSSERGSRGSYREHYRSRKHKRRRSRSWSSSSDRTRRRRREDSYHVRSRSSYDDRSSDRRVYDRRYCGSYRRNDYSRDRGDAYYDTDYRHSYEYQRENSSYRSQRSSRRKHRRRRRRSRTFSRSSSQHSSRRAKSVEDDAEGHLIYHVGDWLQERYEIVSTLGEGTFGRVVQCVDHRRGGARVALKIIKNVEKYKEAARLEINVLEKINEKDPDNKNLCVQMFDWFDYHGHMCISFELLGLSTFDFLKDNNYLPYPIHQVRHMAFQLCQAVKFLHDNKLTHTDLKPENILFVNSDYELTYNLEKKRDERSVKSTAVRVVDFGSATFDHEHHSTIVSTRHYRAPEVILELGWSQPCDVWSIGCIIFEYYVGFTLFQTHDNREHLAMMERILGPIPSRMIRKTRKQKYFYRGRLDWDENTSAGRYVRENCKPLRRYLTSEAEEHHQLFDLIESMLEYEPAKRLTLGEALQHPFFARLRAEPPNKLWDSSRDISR
- CONDITION_NOTES: at 10 µM
REPORTED_METRIC: residual activity

SMILES_INPUT | VALUE_MEASURED
Nc1nccc(-c2c(-c3ccc(F)cc3)ncn2C2CCNCC2)n1 | 30%
COc1ccc(COc2ccc(Cc3cnc(N)nc3N)cc2OC)cc1 | 100%
COc1ccc2c(c1)c(C1=C(c3c[nH]c4ccccc34)C(=O)NC1=O)cn2CCCN(C)C | 2%
N#C/C(=C1/Nc2ccccc2S1)c1ccnc(NCCc2cccnc2)n1 | 13%
COc1cc2ncnc(Nc3cccc(Cl)c3)c2cc1OC | 74%
O=C(O)/C=C/c1cc(Br)c(Br)c(Br)c1Br | 49%
O=C(Nc1nc2ccccc2n1CCN1CCOCC1)c1cccc([N+](=O)[O-])c1 | 24%
COc1ccc(CNC(=O)Nc2ncc([N+](=O)[O-])s2)cc1 | 105%
O=C(c1cc2cc(O)ccc2[nH]1)c1cc2cc(O)ccc2[nH]1 | 5%
O=C1NC(=O)c2c1c1c3ccccc3[nH]c1n1cncc21 | 46%
CCN1/C(=C/C(C)=O)Sc2ccc(OC)cc21 | 6%
O=C1C(Cl)=C(N2C(=O)CCC2=O)C(=O)c2ccccc21 | 80%
N#Cc1c(NC(=O)c2cccc3ccccc23)sc2c1CCCC2 | 99%
CCCCc1c(-c2ccc(O)cc2)[nH]c2nccnc12 | 47%
Cc1cc(C)c(/C=C2\C(=O)Nc3ccccc32)[nH]1 | 37%
Nc1n[nH]c2nc3ccccc3nc12 | 52%
NC(=O)Nc1sc(-c2ccc(F)cc2)cc1C(N)=O | 46%
Oc1cccc(-c2nc(N3CCOCC3)c3oc4ncccc4c3n2)c1 | 89%
CC(C)c1nn(-c2c(Cl)cccc2Cl)c2nc(Cc3ccc(OCCO)cc3)[nH]c(=O)c12 | 48%
COc1cc2c(cc1OC)-c1n[nH]c(Nc3cccc(F)c3)c1C2 | 68%
O=c1cc(N2CCNCC2)oc2c(-c3ccccc3)cccc12 | 93%
O=C1NC(=O)C(c2cn(CCCO)c3ncccc23)=C1c1cnccn1 | 36%
c1ccc(-c2cnc(Nc3ccc(OCCN4CCCC4)cc3)s2)cc1 | 30%
CC(C)(C)n1nc(Cc2cccc3ccccc23)c2c(N)ncnc21 | 42%
